So I've got a bunch of binders here, and I need their pEC50 values.
- TGT: T1, human CD47 on cells (SHP-77 tumor cells, human red blood cells, CCRF-CEM cells, human CD47 CHO-K1 stable cell … (human, UniProt Q08722 19-323))
- T1 construct: whole, on cells; also called RBC
- PROTOCOL_NOTES: flow cytometry on human RBCs;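 further: antibody binding measured by flow cytometry as geometric mean fluorescence intensity over a range of antibody concentrations, with EC50 and maximum taken from a sigmoidal dose-response fit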
Answers are plain numbers, as −log10 of the molar value.

Use the examples below as a reference point.
BINDER	MEASURED_RESULT
108VH5.M21 / 108VL1.M5 (antibody, human IgG4 S228P, kappa, V domains shown, Full-length IgG4 (S228P), kappa; also called VH5.M21 VL1.M5) VH: EVQLVQSGAEVKKPGASVKVSCKASGYTFTHHWMHWVRQAPGQGLEWMGMIDASDFETRYAQKFQGRVTMTRDTSTSTVYMELSSLRSEDTAVYYCARLGRYYFDYWGQGTLVTVSS VL: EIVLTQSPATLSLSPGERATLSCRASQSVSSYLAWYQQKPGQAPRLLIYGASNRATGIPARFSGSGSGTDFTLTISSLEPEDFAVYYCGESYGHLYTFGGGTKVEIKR	8.04
108VH10.Mk / 108VL10.Me (antibody, V domains shown, 4D5-framework series; also called VH10.Mk VL10.Me) VH: EVQLVESGGGLVQPGGSLRLSCAASGFTFSHHWIHWVRQAPGKGLEWVAMIDASDSETRLSQKVKDRFTISADTSKNTAYLQMNSLRAEDTAVYYCSRLGRYYFDYWGQGTLVTVSS VL: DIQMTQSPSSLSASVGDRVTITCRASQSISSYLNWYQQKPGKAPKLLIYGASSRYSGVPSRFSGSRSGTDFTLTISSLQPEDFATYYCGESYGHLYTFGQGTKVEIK	8.41

Please look at the following binder next.
input: Param item = 108VH10.Mr / 108VL10.Me (antibody, V domains shown, 4D5-framework series; constant regions not restated for this series; also called VH10.Mr VL10.Me) VH: EVQLVESGGGLVQPGGSLRLSCAASGFTFSHHWIHWVRQAPGKGLEWVAMIDASDSETRLVDSVKGRFTISADTSKNTAYLQMNSLRAEDTAVYYCSRLGRYYFDYWGQGTLVTVSS VL: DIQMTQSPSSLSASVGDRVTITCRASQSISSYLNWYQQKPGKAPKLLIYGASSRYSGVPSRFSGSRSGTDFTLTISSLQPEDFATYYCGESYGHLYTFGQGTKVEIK ; retrieve measured pEC50.
output: 8.09
